target: GABA-A receptor; alpha-1/beta-2/gamma-2 (Rattus norvegicus, UniProt P18508+P62813+P63138); experiment: Displacement of [3H]flumazenil from rat GABAA alpha-1-beta-2-gamma-2 expressed in HEK293 cells
Sequence (P18508 whole entry): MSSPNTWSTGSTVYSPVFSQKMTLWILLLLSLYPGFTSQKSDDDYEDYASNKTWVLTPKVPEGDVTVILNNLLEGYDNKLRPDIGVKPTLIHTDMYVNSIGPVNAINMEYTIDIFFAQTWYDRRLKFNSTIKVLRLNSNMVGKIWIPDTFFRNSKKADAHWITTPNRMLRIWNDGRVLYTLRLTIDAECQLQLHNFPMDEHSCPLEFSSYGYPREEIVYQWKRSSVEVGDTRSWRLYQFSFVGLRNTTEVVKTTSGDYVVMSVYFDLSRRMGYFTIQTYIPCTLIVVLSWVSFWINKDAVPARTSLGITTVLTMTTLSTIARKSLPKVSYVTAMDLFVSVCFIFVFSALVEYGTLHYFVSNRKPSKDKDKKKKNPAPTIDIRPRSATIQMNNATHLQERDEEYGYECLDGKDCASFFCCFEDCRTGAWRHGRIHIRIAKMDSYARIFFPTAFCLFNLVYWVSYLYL
Sequence (P62813 whole entry): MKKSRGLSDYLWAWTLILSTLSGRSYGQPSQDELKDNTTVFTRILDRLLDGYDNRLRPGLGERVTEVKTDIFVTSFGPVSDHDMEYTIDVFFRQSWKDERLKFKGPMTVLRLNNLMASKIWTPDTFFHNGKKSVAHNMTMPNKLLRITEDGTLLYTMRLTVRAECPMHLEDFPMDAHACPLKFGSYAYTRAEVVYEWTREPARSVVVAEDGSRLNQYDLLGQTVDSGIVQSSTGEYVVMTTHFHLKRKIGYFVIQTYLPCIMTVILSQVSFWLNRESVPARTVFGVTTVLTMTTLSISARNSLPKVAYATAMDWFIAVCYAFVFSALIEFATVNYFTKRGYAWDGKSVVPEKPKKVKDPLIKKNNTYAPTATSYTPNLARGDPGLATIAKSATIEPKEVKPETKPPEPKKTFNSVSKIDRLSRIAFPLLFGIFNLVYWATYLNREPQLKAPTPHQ
Sequence (P63138 whole entry): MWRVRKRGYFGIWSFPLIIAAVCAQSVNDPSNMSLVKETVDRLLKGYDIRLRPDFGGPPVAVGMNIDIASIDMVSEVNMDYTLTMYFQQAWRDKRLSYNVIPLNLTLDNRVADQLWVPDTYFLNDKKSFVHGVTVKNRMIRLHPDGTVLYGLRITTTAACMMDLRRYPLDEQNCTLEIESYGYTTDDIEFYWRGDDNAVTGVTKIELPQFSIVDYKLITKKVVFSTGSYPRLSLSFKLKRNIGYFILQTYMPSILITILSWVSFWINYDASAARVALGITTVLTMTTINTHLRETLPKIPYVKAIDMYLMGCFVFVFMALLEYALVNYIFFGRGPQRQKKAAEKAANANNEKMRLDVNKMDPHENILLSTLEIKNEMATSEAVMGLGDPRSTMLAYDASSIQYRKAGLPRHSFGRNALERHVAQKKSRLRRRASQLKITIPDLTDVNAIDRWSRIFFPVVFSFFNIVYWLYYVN
Could you please report measured log10 of Ki for the items listed next?
Response schema: value (number) is log10 of Ki in units of nM.

State its log10 of Ki: O=C(NCc1ccccc1)C(=O)c1c[nH]c2ccc([N+](=O)[O-])cc12 1.81

State its log10 of Ki: CC(C)NC(=O)C(=O)c1c[nH]c2ccc([N+](=O)[O-])cc12 1.18

State its log10 of Ki: C#Cc1ccc(CNC(=O)C(=O)c2c[nH]c3ccccc23)cc1 2.40

State its log10 of Ki: CCCCNC(=O)C(=O)c1c[nH]c2ccccc12 3.07

State its log10 of Ki: CCc1ccc(CNC(=O)C(=O)c2c[nH]c3ccccc23)cc1 2.75

State its log10 of Ki: O=C(NCc1ccc(Br)cc1)C(=O)c1c[nH]c2ccccc12 1.23

State its log10 of Ki: CC#Cc1ccc(CNC(=O)C(=O)c2c[nH]c3ccccc23)cc1 2.94

State its log10 of Ki: CCCCNC(=O)C(=O)c1c[nH]c2ccc([N+](=O)[O-])cc12 2.10

State its log10 of Ki: Cc1ccc(CNC(=O)C(=O)c2c[nH]c3ccc([N+](=O)[O-])cc23)cc1 1.50

State its log10 of Ki: O=C(NCc1ccccc1)C(=O)c1c[nH]c2ccccc12 2.54

====

biological target: GABA A receptor alpha-5/beta-3/gamma-2 (Rattus norvegicus, UniProt P18508+P19969+P63079); assay: Displacement of [3H]flumazenil from rat GABAA alpha-5-beta-3-gamma-2 expressed in HEK293 cells
Sequence (P18508 whole entry): as the sequence (P18508 whole entry) above
Sequence (P19969 whole entry): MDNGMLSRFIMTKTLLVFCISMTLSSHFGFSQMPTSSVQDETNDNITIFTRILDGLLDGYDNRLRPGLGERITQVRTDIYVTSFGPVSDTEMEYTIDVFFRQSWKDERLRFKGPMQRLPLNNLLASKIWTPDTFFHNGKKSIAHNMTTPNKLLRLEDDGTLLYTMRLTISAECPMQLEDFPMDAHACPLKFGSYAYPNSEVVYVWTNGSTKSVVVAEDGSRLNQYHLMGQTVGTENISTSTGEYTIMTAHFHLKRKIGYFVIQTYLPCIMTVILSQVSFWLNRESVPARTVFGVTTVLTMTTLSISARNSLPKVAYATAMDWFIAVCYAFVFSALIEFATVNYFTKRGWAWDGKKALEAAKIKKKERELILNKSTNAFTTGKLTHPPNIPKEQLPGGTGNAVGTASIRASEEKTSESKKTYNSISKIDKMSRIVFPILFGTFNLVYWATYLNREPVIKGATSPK
Sequence (P63079 whole entry): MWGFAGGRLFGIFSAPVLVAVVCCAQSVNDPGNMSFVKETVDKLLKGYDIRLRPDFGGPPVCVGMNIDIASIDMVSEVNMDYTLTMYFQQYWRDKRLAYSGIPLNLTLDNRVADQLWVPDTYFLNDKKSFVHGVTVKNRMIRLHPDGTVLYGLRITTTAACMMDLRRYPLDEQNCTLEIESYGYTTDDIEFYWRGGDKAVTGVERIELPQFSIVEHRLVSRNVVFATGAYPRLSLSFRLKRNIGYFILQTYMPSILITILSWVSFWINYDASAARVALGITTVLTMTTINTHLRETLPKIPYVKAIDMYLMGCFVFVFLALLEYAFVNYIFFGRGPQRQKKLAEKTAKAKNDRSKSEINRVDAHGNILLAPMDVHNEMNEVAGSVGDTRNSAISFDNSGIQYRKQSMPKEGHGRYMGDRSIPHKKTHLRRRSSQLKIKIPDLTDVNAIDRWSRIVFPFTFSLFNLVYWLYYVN
Could you please report measured Ki for the items listed next?
Give a bare numeral; the unit nM is implied.

State its Ki: O=C(NCc1ccc(Br)cc1)C(=O)c1c[nH]c2ccccc12 1440

State its Ki: C#Cc1ccc(CNC(=O)C(=O)c2c[nH]c3ccccc23)cc1 1150

State its Ki: CC(C)NC(=O)C(=O)c1c[nH]c2ccc([N+](=O)[O-])cc12 498

State its Ki: CCCCNC(=O)C(=O)c1c[nH]c2ccc([N+](=O)[O-])cc12 943
